Where do the numbers come from? From the supplement of paper PMC12042874.

assayInfo: amyloid nucleation score (Sup35N fusion, yeast selection) (log enrichment); library NNK2; higher = more nucleation; inactive = no reads after selection;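 also: zero at mode of non-aggregating sequences after 7 days selection at 30°C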
reportedProperty: amyloid nucleation score

Prompt line: For YIIWLI , what is its reported amyloid nucleation score?
Response line: inactive

Prompt line: Likewise for YISIPDVCLLHSIPQSRASI ?
Response line: inactive

Prompt line: Likewise for FIDLYLRFWVCTSFQCAHSI ?
Response line: inactive

Prompt line: Likewise for NSKKWSQGIGTYSDRAFYVF ?
Response line: inactive

More entries:
Prompt line: For SLGTFVRHTEWSSKNEAFPV , what is its reported amyloid nucleation score?
Response line: inactive

Prompt line: Likewise for IYLQGAGLL ?
Response line: inactive

Prompt line: Likewise for FVHFMRVAASRNTNFYNLLW ?
Response line: inactive

---

assayInfo: amyloid nucleation score (Sup35N fusion, yeast selection) (log enrichment); library NNK1; higher = more nucleation; inactive = no reads after selection
Entry class follows amyloid nucleation score: LOW: < 0.05; MEDIUM: ≥ 0.05 and < 0.6; HIGH: ≥ 0.6

Prompt line: Hello team, could you let me know which band the following substance falls into: KAMLNNKWHLCSHVRTDHAV
Response line: MEDIUM

Prompt line: Likewise for YQWFMYVF ?
Response line: HIGH

Prompt line: Likewise for STKWLFGKNGVSLYLLSRRR ?
Response line: HIGH

Prompt line: Likewise for YGNFKVGFFVIRAWNWLNLI ?
Response line: MEDIUM

Prompt line: Likewise for FSCLNSFKRVFNFNIPASVC ?
Response line: LOW

Prompt line: Likewise for DGGLCFLSMTTIIGGDTLDR ?
Response line: LOW

Prompt line: Likewise for LGNCTGRRHV ?
Response line: HIGH

Prompt line: Likewise for WRFLLWSFHSEAYLIVYS ?
Response line: LOW

Prompt line: Likewise for LIFLKLSSIRYFLMGHY ?
Response line: HIGH

Prompt line: Likewise for FVAISVSTIRQCGVCRGGTC ?
Response line: HIGH

Prompt line: Likewise for GKPDKVHARGWFTLVNRWLR ?
Response line: MEDIUM

Prompt line: Likewise for TVFSSWLTQGSMYV ?
Response line: HIGH

Prompt line: Likewise for MFTWEL ?
Response line: MEDIUM

Prompt line: Likewise for LRENPQLGVVTGLTLGSDLP ?
Response line: MEDIUM

Prompt line: Likewise for NLRQHVYICYNLNGRTHFLW ?
Response line: HIGH

Prompt line: Likewise for YNSRGDCRTLVKRGMGNFCA ?
Response line: MEDIUM

Prompt line: Likewise for VIGYWGW ?
Response line: LOW

Prompt line: Likewise for INFQNDELWVLETIGFHTYP ?
Response line: LOW

Prompt line: Likewise for RAMDYFALEIQLVPRRLVQL ?
Response line: MEDIUM

Prompt line: Likewise for CKRTSDPCHIVECFLPFHVL ?
Response line: MEDIUM

Prompt line: Likewise for MAPLTMTSDLSHISKTGIWG ?
Response line: HIGH

Prompt line: Likewise for SYGNVLVGHGV ?
Response line: LOW

Prompt line: Likewise for SMFRVYYSGGQLQ ?
Response line: HIGH

Prompt line: Likewise for LVHPQVSVGS ?
Response line: HIGH

Prompt line: Likewise for QRVRNRM ?
Response line: LOW

Prompt line: Likewise for WRNYYHWVTFRSDRLDRWFG ?
Response line: HIGH

Prompt line: Likewise for QGTRGRCGFSRDEVECVVRR ?
Response line: LOW

Prompt line: Likewise for YSVFALRINLFAYTIPNSVL ?
Response line: LOW

Prompt line: Likewise for PCSVISGHLTSMSSLSLFGG ?
Response line: LOW

Prompt line: Likewise for DEITLMLA ?
Response line: MEDIUM

Prompt line: Likewise for NNTFQIVLRFSGRHIDFNRR ?
Response line: HIGH

Prompt line: Likewise for LCLDKQSSCGSMMSGIYDLM ?
Response line: LOW

Prompt line: Likewise for IYMVSC ?
Response line: MEDIUM

Prompt line: Likewise for RHSSYIGMCRT ?
Response line: HIGH

Prompt line: Likewise for LVYPYESLFHFESGASH ?
Response line: MEDIUM

Prompt line: Likewise for TDLKLWH ?
Response line: MEDIUM

Prompt line: Likewise for RIDARILLITCL ?
Response line: LOW
